Test system: P388 leukemia ip, CD2F1 mice, survival T/C
Assay: NCI In Vivo Anticancer Drug Screen. Data for tumor model P388 Leukemia (intraperitoneal) in CD2F1 (CDF1) mice
Details: endpoint: median survival time; dose: 6.25 mg/kg/injection; schedule: Q01DX005 (ip); vehicle: Klucel (hydroxypropylcellulose) (HPC); higher = longer survival
Toxic doses and inconclusive results are not listed. Peptide text beside a SMILES is read from it. * marks the point of attachment. Cbz = O=C(OCc1ccccc1)*; Bn = c1ccc(C*)cc1
REPORTED ENDPOINT: T/C

{"columns": ["MOLECULE", "RESULT"],
 "data": [
  ["Nc1ccc(N=N/C(=N\\Nc2ccccc2[As](=O)(O)O)C(=O)Nc2ccccc2)c(Cl)c1", "119 % of control"],
  ["O=S(=O)(c1cccc(N=C=S)c1)c1cccc(N=C=S)c1", "123 % of control"],
  ["CN1C2C=C(c3ccc(Cl)cc3)CC1CC2 (configuration not stated)", "106 % of control"],
  ["NNP(=S)(NN)Oc1ccccc1", "96 % of control"],
  ["Cn1ccc2cc(C3CCCc4c3[nH]c3ccccc43)c(OCc3ccccc3)cc21 (configuration not stated)", "99 % of control"],
  ["CCCCCCCCCNCC(O)c1cc2c(c3ccccc13)CCCC2 (configuration not stated)", "92 % of control"],
  ["Nc1cc2c3c(cccc3c1O)CC2", "99 % of control"],
  ["CCP(CC)(c1ccccc1)=c1c(=O)c(Cl)c(Cl)c(=O)c1=O", "100 % of control"],
  ["CCCCN(CCCC)C(=N)/C=C/c1ccccc1", "97 % of control"],
  ["CCCCCCC1N=C(N)N=C(N)N1c1ccc(Cl)cc1 (configuration not stated)", "100 % of control"],
  ["CC(C)CC(NC(=O)C(CSCc1ccccc1)NC(=O)OCc1ccccc1)C(N)=O (configuration not stated) (Cbz-Cys(Bn)-Leu-NH2; configuration not given here)", "102 % of control"],
  ["COc1ccc2c(C(=O)c3ccccc3)c3[n+](cc2c1OC)CCc1cc2c(cc1-3)OCO2", "103 % of control"]
]}

----------
Tested on: P388 leukemia ip, CD2F1 mice, survival T/C
Test: NCI In Vivo Anticancer Drug Screen. Data for tumor model P388 Leukemia (intraperitoneal) in CD2F1 (CDF1) mice
Conditions: endpoint: median survival time; dose: 200.0 mg/kg/injection; schedule: Q04DX003 (ip); vehicle: saline; higher = longer survival
Protocol: The antitumor activity of compounds was measured in mice bearing transplantable tumors. Survival or tumor size were measured and the results are expressed as the measurement made in the treated group (T) divided by the measurement made in the vehicle treated control group (C). The tumor model used in this assay is P388 Leukemia (intraperitoneal) in CD2F1 (CDF1) mice
Toxic doses and inconclusive results are not listed.
REPORTED ENDPOINT: T/C

{"columns": ["MOLECULE", "RESULT"],
 "data": [
  ["CC(O)(CO)C(C)(O)C(C)(O)c1cn(O)c(=N)c(C(=O)OCc2ccccc2)n1 (centres undefined)", "102 % of control"],
  ["C/C(=N\\OC(=O)c1ccccc1)c1ccccc1", "102 % of control"],
  ["NC(=O)CC[n+]1cccc(C(=O)O)c1", "95 % of control"],
  ["CCC[CH2][Sn]([CH2]CCC)([CH2]CCC)[S]C12CC3CC(CC(C3)C1)C2", "102 % of control"],
  ["OCCC1CC2CCCCN2O1 (centres undefined)", "102 % of control"],
  ["Cc1cnc(C)n2ncnc12", "95 % of control"],
  ["Cc1cc(Cl)nc2ccc([N+](=O)[O-])cc12", "94 % of control"],
  ["CC12NC(=O)NC1(C)NC(=O)N2 (centres undefined)", "97 % of control"],
  ["COc1ncnc2c1nnn2C1OC(CO)C(O)C1O (centres undefined)", "109 % of control"]
]}

----------
Tested on: P388 leukemia ip, CD2F1 mice, survival T/C
Experiment: NCI In Vivo Anticancer Drug Screen. Data for tumor model P388 Leukemia (intraperitoneal) in CD2F1 (CDF1) mice
Conditions: endpoint: median survival time; dose: 240.0 mg/kg/injection; schedule: Q01DX005 (ip); vehicle: saline; higher = longer survival
Method: The antitumor activity of compounds was measured in mice bearing transplantable tumors. Survival or tumor size were measured and the results are expressed as the measurement made in the treated group (T) divided by the measurement made in the vehicle treated control group (C). The tumor model used in this assay is P388 Leukemia (intraperitoneal) in CD2F1 (CDF1) mice
Toxic doses and inconclusive results are not listed.
Attribute: T/C

{"columns": ["MOLECULE", "T/C"],
 "data": [
  ["CC[N+]12CC=C(CO)C1C(O)CC2 (stereo not given)", "106 % of control"],
  ["CC1=CP(=O)(c2ccccc2)CC1 (stereo not given) (tested in a mixture with another compound)", "102 % of control"],
  ["CS(=O)(=O)CC(=N\\N)/C(CS(C)(=O)=O)=N/N", "108 % of control"],
  ["NC(CO)C(=O)NCCS(=O)(=O)O (stereo not given)", "99 % of control"],
  ["CS(=O)CC1OC2OC3C(CO)OC(OC4C(CO)OC(OC5C(CO)OC(OC6C(CO)OC(OC7C(CO)OC(OC8C(CO)OC(OC1C(O)C2O)C(O)C8O)C(O)C7O)C(O)C6O)C(O)C5O)C(O)C4O)C(O)C3O (stereo not given)", "104 % of control"]
]}

----------
Tested on: P388 leukemia ip, CD2F1 mice, survival T/C
Test: NCI In Vivo Anticancer Drug Screen. Data for tumor model P388 Leukemia (intraperitoneal) in CD2F1 (CDF1) mice
Details: endpoint: median survival time; dose: 60.0 mg/kg/injection; schedule: Q01DX005 (ip); vehicle: saline with Tween-80; higher = longer survival
Toxic doses and inconclusive results are not listed.

{"columns": ["COMPOUND", "T/C"],
 "data": [
  ["O=C1CCC(c2n[nH]c(=S)o2)N1 (configuration not stated)", "104 % of control"],
  ["O=Cc1cc(-c2ccccc2)n(-c2ccccc2)c1-c1ccccc1", "96 % of control"],
  ["Nc1nnc(Cc2ccc(Br)cc2)o1", "98 % of control"],
  ["CN(C(=S)NNC(=O)C1CCC(=O)N1)c1ccccc1 (configuration not stated)", "99 % of control"],
  ["CC(C)(C)SC(=S)SCC(=O)c1ccc(Cl)cc1", "99 % of control"],
  ["CC(C)(C)OOC(=O)/C=C/c1ccccc1", "101 % of control"],
  ["CCOc1cc2c(cc1C(C)(C)c1ccc(OC)cc1)OCO2", "98 % of control"],
  ["CN1CCOC(=O)C(C#N)=C1c1ccccc1", "110 % of control"],
  ["COC(=O)C(/C=[N+](\\[O-])C1CCCCC1)=C(\\C=[N+](/[O-])C1CCCCC1)C(=O)OC", "102 % of control"],
  ["O=C1CCC(Cc2ccc(C(F)(F)F)cc2)C(=O)N1 (configuration not stated)", "102 % of control"],
  ["CCCCCCC(=O)/C=c1\\c(CC(=O)CCCCCC)nc2nnc(N)n12", "96 % of control"],
  ["c1ccc2c3c([nH]c2c1)C1CC2CCCCC2CN1CC3 (configuration not stated)", "94 % of control"]
]}

----------
Test system: P388 leukemia ip, CD2F1 mice, survival T/C
Assay: NCI In Vivo Anticancer Drug Screen. Data for tumor model P388 Leukemia (intraperitoneal) in CD2F1 (CDF1) mice
Conditions: endpoint: median survival time; dose: 200.0 mg/kg/injection; schedule: Q04DX002 (ip); vehicle: saline with Tween-80; higher = longer survival
Toxic doses and inconclusive results are not listed.
REPORTED ENDPOINT: T/C

{"columns": ["COMPOUND", "REPORTED ENDPOINT", "RESULT"],
 "data": [
  ["CC1C(=O)CCC2(C)CCC3C(OC(=O)C3(C)[Se]c3ccccc3)C12 (stereo unspecified)", "T/C", "98 % of control"],
  ["CC12C(=O)C(Br)C1CC2S(=O)(=O)O (stereo unspecified)", "T/C", "96 % of control"],
  ["O=c1nc(-c2ccccc2)nc(-c2ccccc2)[nH]1", "T/C", "89 % of control"],
  ["COc1ccc(-c2oc3cc(OC)c(OC)c(O)c3c(=O)c2O)cc1O", "T/C", "102 % of control"],
  ["O=C(Nc1nncs1)c1cccs1", "T/C", "114 % of control"],
  ["COc1ccc(C(C)c2cc3c(cc2OCCOC(C)=O)OCO3)cc1 (stereo unspecified)", "T/C", "100 % of control"]
]}
